Reference source for all entries: PubChem BioAssay

Assay: galactose survival enhancers in mitochondrial complex I cybrids – cell-based, galactose medium, ATP luminescence, primary screen (AID 1645843);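 note: positive z means more ATP and so rescue of galactose-driven cybrid death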
Details: complex I mutant cybrid cells, 72 h, stronger effect = higher value
outcome-measure: z-score
Numbers only.

Completed entries (count: 8):
molecule=CCN(CC)CCNC(=O)c1cc(-c2cc(C)cs2)cc(S(=O)(=O)N2CCOCC2)c1 value_observed=1.25
molecule=O=S(=O)(O)CCCSc1nc2ccccc2s1 value_observed=0.7
molecule="O=C(NCCn1ccnc1)c1cc(NCC2CC=CCC2)cc(S(=O)(=O)N2CCCC2)c1 (stereo not given)" value_observed=-0.94
molecule="CC(C)C1CCC(C(=O)NC(Cc2ccccc2)C(=O)O)CC1 (stereo not given)" value_observed=0.805
molecule=C=C/C(C)=C/[C@@]1(C)SC(=O)C(C)=C1O value_observed=0.66
molecule=N=S(=O)(O)Cc1noc2ccccc12 value_observed=0.5
molecule=CN1CCN(C(=O)c2ccc3c(c2)CCO3)CC1=O value_observed=0.07
molecule=N.N.O=C(O)C1(C(=O)O)CCC1.[Pt+2] value_observed=-0.53

State recorded z-score for all listed molecules.
1. COc1ccccc1N1CCN(C(=O)Nc2n[nH]c(Cc3ccccc3)n2)CC1
2. CO/N=C(\C(=O)N[C@@H]1C(=O)N2C(C(=O)O)=C(COC(C)=O)CS[C@H]12)c1csc(N)n1
3. COc1ccc(-c2cc(-n3cccn3)ncn2)c(-n2cccn2)c1
4. C=CC[C@H](N)C(=O)O
5. CCCCCNC(=O)N1CCC2(CC1)Nc1ccccc1N(CC)C2=O
6. O=c1cc(O)cc(/C=C/c2ccc(O)c(O)c2)o1
7. O=C(O)c1ccc(-c2ccccc2OC(F)(F)F)o1

1. -0.935
2. -0.18
3. -0.595
4. 0.62
5. -0.065
6. -0.475
7. 0.04

State recorded z-score for all listed molecules.
1. Cc1ccc(C(C)CCN2CCc3c(c(C(=O)N4CCC(O)CC4)nn3CCc3ccccc3)C2)o1 (stereo not given)
2. C=C[C@H]1CN2CCC1C[C@H]2[C@H](O)c1ccnc2ccc(OC)cc12 (stereo not given in full)
3. O=C(Nc1nc(-c2ccccc2)ns1)N1CCN(C2CCCCC2)C(=O)C1
4. CCC1(CO)CCCN(c2ncc(C(F)(F)F)cc2Cl)C1 (stereo not given)

1. 0.6
2. -1.04
3. -0.54
4. 2.98

State recorded z-score for all listed molecules.
1. O=c1cc(-c2ccccc2)oc2ccccc12
2. CCn1nc(C(=O)N2CCCCC2)c2c1CCC(NCc1ccc3c(c1)OCO3)C2 (stereo not given)
3. COc1cccc2ccc(CN3CCC4(CC3)C(=O)N(CCc3ccccc3)C(=O)N4C)nc12
4. O=C1NCCN(C(=O)c2ccc(F)c(F)c2)C1Cc1ccccc1 (stereo not given)
5. CN(C)C(=O)c1cc(-c2cnc(-c3ccccn3)nc2)nc2cc(F)ccc12
6. Cc1ccc(F)cc1-c1cccc(C(=O)c2nccn2C)c1
7. Nc1ncccc1OCc1ccccc1
8. O=C(CCSCc1ccco1)NNC(=O)N1Cc2ccccc2Oc2ccc(Cl)cc21

1.36
-1.14
0.055
-0.495
-0.41
-0.54
-0.165
1.58

State recorded z-score for all listed molecules.
1. CCNC(=O)[C@H]1O[C@@H](n2cnc3c(N)nc(NCCc4ccc(CCC(=O)O)cc4)nc32)C(O)[C@H]1O (stereo not given in full)
2. Cc1c(CN2CC(=O)N(Cc3ccccc3)CC(O)C2)c(=O)n(-c2ccccc2)n1C (stereo not given)
3. CN(C)C(=O)c1nn(Cc2ccccc2)c2c1CN(C(=O)C1CC(=O)Nc3ccccc31)CC2 (stereo not given)
4. CC(C)[C@@H]1NC(=O)[C@@H]2C[C@H](NC(=O)c3cc(C(C)(C)C)nn3C)CN2C1=O
5. Cc1csc(-c2cc(C(=O)NCCC3CCCN3C)cc(S(=O)(=O)N3CCOCC3)c2)c1 (stereo not given)

[0.485, 0.83, 0.725, -0.355, -1.3]

###

Test: growth inhibition, single agents and combos, LFS_MB_2R, cell-based, cisplatin combos, synergistic combos for chromothripsis tumors (AID 1671457);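 note: cells exposed to compound for four days before readout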
Details: LFS_MB_2R medulloblastoma cells, measured here: combination with cisplatin, at 0.5 µM, stronger effect = higher value
Classify by measured inhibition: fulfilled if it is equal to or exceeds -10%, not fulfilled if it is smaller.

molecule="COc1cccc2c1C(=O)c1c(O)c3c(c(O)c1C2=O)CC(O)(C(C)=O)CC3OC1CC(N)C(O)C(C)O1 (centres undefined)" class=fulfilled
molecule="CON=C1CN(c2nc3c(cc2F)c(=O)c(C(=O)O)cn3C2CC2)CC1CN (centres undefined)" class="not fulfilled"
molecule="CC(Oc1cc(-c2cnn(C3CCNCC3)c2)cnc1N)c1c(Cl)ccc(F)c1Cl (centres undefined)" class="not fulfilled"
molecule=C[n+]1ccc(-c2c3nc(c(-c4cc[n+](C)cc4)c4ccc([nH]4)c(-c4cc[n+](C)cc4)c4nc(c(-c5cc[n+](C)cc5)c5ccc2[nH]5)C=C4)C=C3)cc1 class="not fulfilled"
molecule=Cc1cc(C#N)cc(C)c1Oc1nc(Nc2ccc(C#N)cc2)nc(N)c1Br class="not fulfilled"
molecule=O=C(CCCCCCC(=O)Nc1ccc(I)cc1)NO class=fulfilled

Please tell me: is the molecule N#Cc1ccc(OC2CCC(NC(=O)CCSc3nc4ccccc4c(=O)[nH]3)CC2)cc1 (centres undefined) at or over -10% in terms of inhibition? not fulfilled

Queued: CC(C)C(=O)SCCCCCCC(=O)Nc1nc(-c2ccccc2)cs1 not fulfilled

Queued: CC1CN(c2c(F)c(N)c3c(=O)c(C(=O)O)cn(C4CC4)c3c2F)CC(C)N1 (centres undefined) fulfilled

###

Experiment: MELAS cybrid and Rieske KO viability enhancers – cell-based, MELAS cybrids, Rieske KO mouse fibroblasts, CellTiter-Glo, primary screen (AID 1508586);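 note: z relative to plate mean and SD of compound and empty wells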
Conditions: Rieske KO mouse fibroblast survival, low glucose, CellTiter-Glo 72 h
outcome-measure: z-score
One number for each entry.

Completed entries (count: 6):
compound="C=CCC1C=C(C)CC(C)CC(OC)C2O[C@@](O)(C(=O)C(=O)N3CCCC[C@H]3C(=O)OC(C(C)=CC3CCC(O)C(OC)C3)C(C)C(O)CC1=O)C(C)CC2OC (some centres undefined)" outcome_measure=z-score value_observed=0.683
compound=CCOC(=O)c1c(C)n[nH]c1C outcome_measure=z-score value_observed=-0.58
compound="CC(C)NCC(C(=O)N1CCN(c2ncnc3c2C(C)CC3O)CC1)c1ccc(Cl)cc1 (centres undefined)" outcome_measure=z-score value_observed=0.0437
compound=CCOC(=O)c1nn(CCc2ccc(OC)cc2)c2c1CN(Cc1cccn1-c1ccccn1)CC2 outcome_measure=z-score value_observed=0.052
compound=O=C(O)Cc1ccc(O)c([N+](=O)[O-])c1 outcome_measure=z-score value_observed=0.189
compound=C[C@H]1NC(=O)[C@H]2CN(C(=O)Oc3ccc(Cl)cc3)CCN2C1=O outcome_measure=z-score value_observed=0.985

State recorded z-score for all listed compounds.
1. CC(C)N(CCCNC(=O)Nc1ccc(C(C)(C)C)cc1)CC1OC(n2ccc3c(N)ncnc32)C(O)C1O (centres undefined)
2. CC1(C)[C@@H](O)CC[C@@]2(C)[C@H]1CC[C@]1(C)[C@H]2C(=O)C=C2[C@H]3C[C@@](C)(C(=O)O)CC[C@]3(C)CC[C@]21C
3. O=C(Nc1cc(C(F)(F)F)ccc1N1CCCCC1)c1ccncc1
4. CCC1OC(=O)C(C)C(OC2C[C@@](C)(OC)C(O)C(C)O2)C(C)C(OC2OC(C)CC(N(C)C)C2O)[C@@](C)(O)CC(C)C(=O)C(C)C(O)[C@]1(C)O (some centres undefined)

1: 0.555; 2: 0.479; 3: 1.41; 4: 0.782

State recorded z-score for all listed compounds.
1. CC(CCC(=O)O)C1CC[C@H]2[C@@H]3CC[C@@H]4CC(O)CC[C@]4(C)[C@H]3CC[C@]12C (some centres undefined)
2. Cc1cc(=O)c(C(=O)N[C@@H](C(=O)N[C@@H]2C(=O)N3C(C(=O)O)=C(CSc4nnnn4C)CS[C@H]23)c2ccc(O)cc2)c[nH]1

[-0.272, -0.0348]

State recorded z-score for all listed compounds.
1. CCc1c2c(nc3ccc(OC(=O)N4CCC(N5CCCCC5)CC4)cc13)-c1cc3c(c(=O)n1C2)COC(=O)[C@@]3(O)CC
2. C=C[C@]1(C)CC(OC(=O)CSC(C)(C)CNC(=O)C(N)C(C)C)[C@@]2(C)C(C)CC[C@]3(CCC(=O)[C@H]32)C(C)C1O (some centres undefined)
3. COC(=O)C1C(O)CC[C@H]2CN3CCc4c([nH]c5ccccc45)[C@@H]3C[C@H]12 (some centres undefined)

1: -0.798; 2: 2.78; 3: 0.721

###

Experiment: viability loss with induced miR-34 in A549 – imaging, A549 dox-inducible miR-34, nuclei and caspase counts, primary screen (AID 1347080)
Settings: A549 miR-34 inducible, Hoechst nuclei count, 48 h; measured here: relative caspase fold change +Dox/-Dox
Kindly supply the reported fold change values for the records listed here.

compound=Cc1ccc(NC(=O)c2ccc3nccnc3c2)cn1 outcome_measure="fold change" value_observed=1.41

State recorded fold change for all listed compounds.
1. CC1CN(CCCn2c3ccccc3c3ccccc32)CC(C)N1 (stereo not drawn)
2. NCC(=O)Nc1ccc(OCc2ccccc2)cc1

[1.22, 0.248]
